Please respond with reported pIC50 for every item in the list.
- TEST_SYSTEM: hmGluR1 receptor (Homo sapiens, UniProt Q13255)
- Construct: expressed in transfected cells; host or cells: CHO
- Sequence (Q13255 19-1194): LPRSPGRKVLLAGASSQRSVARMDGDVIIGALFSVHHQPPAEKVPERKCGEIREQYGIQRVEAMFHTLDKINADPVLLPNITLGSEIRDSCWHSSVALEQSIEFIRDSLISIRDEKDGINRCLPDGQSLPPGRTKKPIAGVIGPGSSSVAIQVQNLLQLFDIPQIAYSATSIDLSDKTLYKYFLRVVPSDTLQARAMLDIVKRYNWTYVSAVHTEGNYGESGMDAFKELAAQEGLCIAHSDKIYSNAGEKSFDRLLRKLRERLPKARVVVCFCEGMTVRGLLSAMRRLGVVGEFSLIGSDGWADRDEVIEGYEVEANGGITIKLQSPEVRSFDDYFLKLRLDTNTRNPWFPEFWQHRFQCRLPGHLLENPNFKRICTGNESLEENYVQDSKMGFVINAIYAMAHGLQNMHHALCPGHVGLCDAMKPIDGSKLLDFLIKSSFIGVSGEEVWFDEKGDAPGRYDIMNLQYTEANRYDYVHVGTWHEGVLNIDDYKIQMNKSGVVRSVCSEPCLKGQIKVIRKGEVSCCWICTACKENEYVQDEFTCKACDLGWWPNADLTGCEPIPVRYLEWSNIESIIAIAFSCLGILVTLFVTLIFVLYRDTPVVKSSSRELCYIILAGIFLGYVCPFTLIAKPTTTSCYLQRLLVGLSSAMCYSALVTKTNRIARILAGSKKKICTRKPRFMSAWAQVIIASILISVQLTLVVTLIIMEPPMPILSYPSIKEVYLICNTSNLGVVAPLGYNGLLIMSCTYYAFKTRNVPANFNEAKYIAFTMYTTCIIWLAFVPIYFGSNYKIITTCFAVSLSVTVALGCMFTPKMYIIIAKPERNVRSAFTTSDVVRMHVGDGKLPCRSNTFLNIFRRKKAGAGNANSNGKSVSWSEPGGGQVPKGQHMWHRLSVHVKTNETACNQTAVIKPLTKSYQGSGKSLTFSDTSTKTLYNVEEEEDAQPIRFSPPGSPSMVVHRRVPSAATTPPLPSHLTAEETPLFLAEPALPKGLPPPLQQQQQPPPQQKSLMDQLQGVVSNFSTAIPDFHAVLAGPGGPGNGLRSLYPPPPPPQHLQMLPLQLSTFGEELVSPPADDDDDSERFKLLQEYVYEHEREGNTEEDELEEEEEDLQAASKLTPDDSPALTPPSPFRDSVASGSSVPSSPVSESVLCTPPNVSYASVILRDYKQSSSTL
- EXPERIMENT: mGluR1 IC50 determination, FLIPR intracellular calcium mobilization against Quisqualate
- Format: cell-based
- EXPERIMENTAL_CONDITIONS: CHO cell line stably expressing hmGluR1; against Quisqualate 1 μM (EC80); compounds added 10 minutes before; read-out: mGluR1 IC50 rating
pIC50: −log10 of the molar value.

Consider the compound COc1ccc(-n2ccc3c(sc4nccc(NC5CC5)c43)c2=O)c(F)c1 [19BH] . State its measured pIC50.
7.00 to 7.70

Consider the compound O=c1c2sc3nccc(NCCO)c3c2ccn1-c1ccc(Cl)cc1 [19F] . State its measured pIC50.
> 7.70

Consider the compound COc1ccnc2sc3c(=O)n(-c4ccc(Cl)cc4)ccc3c12 [16B] . State its measured pIC50.
> 7.70

----------
- TEST_SYSTEM: hmGluR1 receptor (Homo sapiens)
- Construct: expressed in transfected cells; host or cells: CHO
- EXPERIMENT: mGluR1 IC50 determination, FLIPR intracellular calcium mobilization against Quisqualate
- Assay type: cell-based
- EXPERIMENTAL_CONDITIONS: CHO cell line stably expressing hmGluR1; against Quisqualate 1 μM (EC80); compounds added 10 minutes before; read-out: mGluR1 IC50 rating
PARAMETER: IC50

Consider the molecule COc1ccnc2sc3c(=O)n(-c4ccccc4)ccc3c12 [16M] . State its measured IC50.
< 20 nM

Consider the molecule COc1ccnc2sc3c(=O)n(-c4cccc(C)c4)ccc3c12 [16T] . State its measured IC50.
< 20 nM

Consider the molecule CCNc1ccnc2sc3c(=O)n(-c4ccc(F)cc4)ccc3c12 [19AL] . State its measured IC50.
20 to 100 nM

Consider the molecule Cc1ccc(-n2ccc3c(sc4nccc(NCC(F)(F)F)c43)c2=O)cc1 [19R] . State its measured IC50.
20 to 100 nM

Consider the molecule O=c1c2sc3nccc(O)c3c2ccn1-c1ccc(Cl)cc1 [17B] . State its measured IC50.
100 to 1000 nM

Consider the molecule N#Cc1ccc(-n2ccc3c(sc4nccc(NC5CC5)c43)c2=O)cc1 [19BC] . State its measured IC50.
20 to 100 nM

Consider the molecule COc1ccc(-n2ccc3c(sc4nccc(OC)c43)c2=O)cc1F [16I] . State its measured IC50.
< 20 nM

Consider the molecule CCNc1ccnc2sc3c(=O)n(-c4ccc(OC)c(F)c4)ccc3c12 [19AU] . State its measured IC50.
< 20 nM

Consider the molecule CCNc1ccnc2sc3c(=O)n(-c4ccc(OC)cc4F)ccc3c12 [19BG] . State its measured IC50.
20 to 100 nM

Consider the molecule COc1ccnc2sc3c(=O)n(-c4ccc5ncsc5c4)ccc3c12 [16F] . State its measured IC50.
20 to 100 nM

----------
- TEST_SYSTEM: hmGluR1 receptor (Homo sapiens)
- Construct: expressed in transfected cells; host or cells: CHO
- EXPERIMENT: mGluR1 IC50 determination, FLIPR intracellular calcium mobilization against Quisqualate
- Format: cell-based
- EXPERIMENTAL_CONDITIONS: CHO cell line stably expressing hmGluR1; against Quisqualate 1 μM (EC80); compounds added 10 minutes before; read-out: mGluR1 IC50 rating
Please respond with reported IC50 for every item in the list.

Supply IC50 measured with hmGluR1 receptor (Homo sapiens) for Cc1ccc(-n2ccc3c(sc4nccc(O)c43)c2=O)cc1 [17C] .
100 to 1000 nM

Supply IC50 measured with hmGluR1 receptor (Homo sapiens) for COc1ccnc2sc3c(=O)n(-c4ccc5scnc5c4)ccc3c12 [16G] .
< 20 nM

Supply IC50 measured with hmGluR1 receptor (Homo sapiens) for COc1ccnc2sc3c(=O)n(-c4ccc(C#N)cc4)ccc3c12 [16X] .
20 to 100 nM

Supply IC50 measured with hmGluR1 receptor (Homo sapiens) for COc1ccc(-n2ccc3c(sc4ncnc(OC)c43)c2=O)cc1 [23B] .
100 to 1000 nM

Supply IC50 measured with hmGluR1 receptor (Homo sapiens) for COCCCNc1ccnc2sc3c(=O)n(-c4ccc(OC)cc4)ccc3c12 [19W] .
20 to 100 nM

Supply IC50 measured with hmGluR1 receptor (Homo sapiens) for COc1ccc(-n2ccc3c(sc4nccc(NCCCCCO)c43)c2=O)cc1 [19AH] .
20 to 100 nM

Supply IC50 measured with hmGluR1 receptor (Homo sapiens) for COc1ccc(-n2ccc3c(sc4nccc(NC5CC5)c43)c2=O)cc1F [19AV] .
< 20 nM

Supply IC50 measured with hmGluR1 receptor (Homo sapiens) for Cc1ccc(-n2ccc3c(sc4nccc(NC[C@@H](C)O)c43)c2=O)cc1 [19M] .
20 to 100 nM

Supply IC50 measured with hmGluR1 receptor (Homo sapiens) for COc1ccnc2sc3c(=O)n(-c4ccccc4Cl)ccc3c12 [16U] .
20 to 100 nM

Supply IC50 measured with hmGluR1 receptor (Homo sapiens) for COc1ccc(-n2ccc3c(sc4nccc(NCCCO)c43)c2=O)cc1 [19Y] .
20 to 100 nM

Supply IC50 measured with hmGluR1 receptor (Homo sapiens) for COc1ccnc2sc3c(=O)n(-c4ccc5c(c4)OCCO5)ccc3c12 [16P] .
20 to 100 nM

Supply IC50 measured with hmGluR1 receptor (Homo sapiens) for C#CCNc1ccnc2sc3c(=O)n(-c4ccc(C)cc4)ccc3c12 [19AG] .
< 20 nM

Supply IC50 measured with hmGluR1 receptor (Homo sapiens) for O=c1c2sc3nccc(NC4CC4)c3c2ccn1-c1ccc(F)cc1 [19AM] .
20 to 100 nM

Supply IC50 measured with hmGluR1 receptor (Homo sapiens) for COc1ccnc2sc3c(=O)n(-c4ccc(F)cc4)ccc3c12 [16H] .
< 20 nM

Supply IC50 measured with hmGluR1 receptor (Homo sapiens) for COc1ccc(-n2ccc3c(sc4nccc(NCC(F)(F)F)c43)c2=O)cc1 [19S] .
20 to 100 nM

Supply IC50 measured with hmGluR1 receptor (Homo sapiens) for O=c1c2sc3nccc(NCC(F)(F)F)c3c2ccn1-c1ccc(Cl)cc1 [19I] .
20 to 100 nM

Supply IC50 measured with hmGluR1 receptor (Homo sapiens) for COc1ccc(-n2ccc3c(sc4nccc(NCCCCO)c43)c2=O)cc1 [19AA] .
20 to 100 nM

Supply IC50 measured with hmGluR1 receptor (Homo sapiens) for CN(C)c1ccnc2sc3c(=O)n(-c4ccc(O)cc4)ccc3c12 .
< 20 nM

Supply IC50 measured with hmGluR1 receptor (Homo sapiens) for COc1ccnc2sc3c(=O)n(-c4ccc(C)cc4)ccc3c12 [16C] .
< 20 nM

Supply IC50 measured with hmGluR1 receptor (Homo sapiens) for CCNc1ccnc2sc3c(=O)n(-c4ccc(C#N)cc4)ccc3c12 [19BB] .
20 to 100 nM

Supply IC50 measured with hmGluR1 receptor (Homo sapiens) for COc1ncnc2sc3c(=O)n(-c4ccc(C)cc4)ccc3c12 [23A] .
< 20 nM

Supply IC50 measured with hmGluR1 receptor (Homo sapiens) for COc1ccnc2sc3c(=O)n(-c4ccc5c(c4)OCO5)ccc3c12 [16O] .
< 20 nM

Supply IC50 measured with hmGluR1 receptor (Homo sapiens) for C#CCNc1ccnc2sc3c(=O)n(-c4ccc(Br)cc4)ccc3c12 [19AZ] .
< 20 nM

Supply IC50 measured with hmGluR1 receptor (Homo sapiens) for COCCNc1ccnc2sc3c(=O)n(-c4ccc(O)cc4)ccc3c12 [19J] .
> 1000 nM

Supply IC50 measured with hmGluR1 receptor (Homo sapiens) for Cc1ccc(-n2ccc3c(sc4nccc(NCCO)c43)c2=O)cc1 [19L] .
20 to 100 nM

Supply IC50 measured with hmGluR1 receptor (Homo sapiens) for COc1ccnc2sc3c(=O)n(-c4ccc5occc5c4)ccc3c12 [16Q] .
< 20 nM

Supply IC50 measured with hmGluR1 receptor (Homo sapiens) for O=c1c2sc3nccc(NC4CC4)c3c2ccn1-c1ccc2scnc2c1 [19AR] .
20 to 100 nM

Supply IC50 measured with hmGluR1 receptor (Homo sapiens) for COc1ccnc2sc3c(=O)n(-c4cccc(Cl)c4)ccc3c12 [16R] .
< 20 nM

Supply IC50 measured with hmGluR1 receptor (Homo sapiens) for COc1ccc(-n2ccc3c(sc4nccc(N(C)N)c43)c2=O)cc1 [19U] .
< 20 nM

Supply IC50 measured with hmGluR1 receptor (Homo sapiens) for C#CCNc1ccnc2sc3c(=O)n(-c4ccc(OC)c(F)c4)ccc3c12 [19AO] .
100 to 1000 nM

Supply IC50 measured with hmGluR1 receptor (Homo sapiens) for CCNc1ccnc2sc3c(=O)n(-c4ccc5scnc5c4)ccc3c12 [19AQ] .
20 to 100 nM

Supply IC50 measured with hmGluR1 receptor (Homo sapiens) for COCCCNc1ccnc2sc3c(=O)n(-c4ccc(Cl)cc4)ccc3c12 [19H] .
20 to 100 nM

Supply IC50 measured with hmGluR1 receptor (Homo sapiens) for COc1ccnc2sc3c(=O)n(-c4ccc(Br)cc4)ccc3c12 [16E] .
< 20 nM

Supply IC50 measured with hmGluR1 receptor (Homo sapiens) for C[C@@H](O)CNc1ccnc2sc3c(=O)n(-c4ccc(Cl)cc4)ccc3c12 [19E] .
20 to 100 nM

Supply IC50 measured with hmGluR1 receptor (Homo sapiens) for C#CCNc1ccnc2sc3c(=O)n(-c4ccc(OC)cc4)ccc3c12 [19X] .
20 to 100 nM

Supply IC50 measured with hmGluR1 receptor (Homo sapiens) for C#CCNc1ccnc2sc3c(=O)n(-c4ccc(F)cc4)ccc3c12 [19AN] .
20 to 100 nM

Supply IC50 measured with hmGluR1 receptor (Homo sapiens) for Cc1ccc(-n2ccc3c(sc4nccc(N)c43)c2=O)cc1 [19AC] .
20 to 100 nM

Supply IC50 measured with hmGluR1 receptor (Homo sapiens) for C#CCNc1ccnc2sc3c(=O)n(-c4ccc(Cl)cc4)ccc3c12 [19AE] .
< 20 nM

Supply IC50 measured with hmGluR1 receptor (Homo sapiens) for COCCNc1ccnc2sc3c(=O)n(-c4ccc(C)cc4)ccc3c12 [19C] .
20 to 100 nM

Supply IC50 measured with hmGluR1 receptor (Homo sapiens) for COc1ncnc2sc3c(=O)n(-c4ccc(Cl)cc4)ccc3c12 [23C] .
20 to 100 nM

Supply IC50 measured with hmGluR1 receptor (Homo sapiens) for COCCNc1ccnc2sc3c(=O)n(-c4ccc(Cl)cc4)ccc3c12 [19G] .
20 to 100 nM
